- Test system: Mycobacterium tuberculosis
- assay: Antitubercular activity against Mycobacterium tuberculosis H37Rv ATCC 27294 after 11 days by serial dilution method
- Assay type: functional
- measurement.setup: H37Rv ATCC 27294, 264 h
property.label: MIC90

Record excerpt, results attached:
Cc1ccccc1-c1nc(=O)ss1    16 mg/L
COc1ccc(OC)c(-c2nsc(=O)o2)c1    16 mg/L
O=c1oc(-c2cc(F)c(Cl)nc2Cl)ns1    16 mg/L

Could you share which MIC90 value was measured for Nc1ccc(-c2nsc(=O)o2)cc1 ? 16 mg/L

Could you share which MIC90 value was measured for COc1ccc(OC)c(-c2nc(=O)ss2)c1 ? 32 mg/L

Could you share which MIC90 value was measured for O=c1oc(-c2ccc(F)cc2)ns1 ? 16 mg/L

Could you share which MIC90 value was measured for Cc1sc(-c2nsc(=O)o2)cc1[N+](=O)[O-] ? 2 mg/L

----------
- Tested on: Mycobacterium tuberculosis
- assay: Antitubercular activity against Mycobacterium tuberculosis H37Rv ATCC 27294 after 11 days by serial dilution method
- Type: functional
- measurement.setup: H37Rv ATCC 27294, 264 h
property.label: MIC90

Record excerpt, results attached:
O=c1nc(-c2ccc3ccccc3c2)ss1    32 mg/L
Cc1ccccc1-c1nsc(=O)o1    8 mg/L
O=c1nc(-c2ccccc2[N+](=O)[O-])ss1    16 mg/L
O=c1nc(-c2cnccn2)ss1    32 mg/L
O=c1nc(-c2ccccc2Cl)ss1    8 mg/L
O=c1oc(-c2ccccc2[N+](=O)[O-])ns1    8 mg/L

Could you share which MIC90 value was measured for COc1cccc(-c2nsc(=O)o2)c1 ? 8 mg/L

Could you share which MIC90 value was measured for O=c1oc(-c2ccc3ccccc3c2)ns1 ? 16 mg/L

----------
- System: Mycobacterium tuberculosis
- assay: Antitubercular activity against Mycobacterium tuberculosis H37Rv ATCC 27294 after 11 days by serial dilution method
- Format: functional
- measurement.setup: H37Rv ATCC 27294, 264 h
Field 'label' (enum: Y / N). Set to Y when MIC99 is strictly under 20 µg/mL; else N.

O=c1oc(-c2ccc3ccccc3c2)ns1    Y

Please find the next molecule below.
Is MIC99 strictly under 20 µg/mL for the entry O=c1oc(-c2ccc(Cl)cc2)ns1 ? Y

----------
- Tested on: Mycobacterium tuberculosis
- assay: Antitubercular activity against Mycobacterium tuberculosis H37Rv ATCC 27294 after 11 days by serial dilution method
- Format: functional
- measurement.setup: H37Rv ATCC 27294, 264 h
property.label: MIC90 (µg/mL)
Number only, in µg/mL; omit the unit.

Record excerpt, results attached:
O=c1nc(-c2ccc(Cl)cc2)ss1    64
O=c1nc(-c2ccc([N+](=O)[O-])cc2Cl)ss1    32
O=c1oc(-c2cccnc2Cl)ns1    8
O=c1nc(-c2cccnc2Cl)ss1    32
Cc1ccc(-c2nsc(=O)o2)s1    8
O=c1oc(-c2ccccc2Cl)ns1    8
COc1cccc(-c2nc(=O)ss2)c1    16
Nc1ccc(-c2nc(=O)ss2)cc1    16

Turning now to a further compound:
Could you share which MIC90 value was measured for O=c1oc(-c2cnccn2)ns1 ? 16

----------
- Test system: Mycobacterium tuberculosis
- assay: Antitubercular activity against Mycobacterium tuberculosis H37Rv ATCC 27294 after 11 days by serial dilution method
- Assay type: functional
- measurement.setup: H37Rv ATCC 27294, 264 h
Field 'label' (enum: rule met / rule not met). Set to rule met when MIC99 is strictly under 20 µg/mL; else rule not met.

Solved cases below.
O=c1nc(-c2ccc(F)cc2)ss1    rule met
Cc1sc(-c2nsc(=O)o2)cc1[N+](=O)[O-]    rule met
Cc1ccccc1-c1nc(=O)ss1    rule not met
O=c1nc(-c2ccc3ccccc3c2)ss1    rule met
O=c1nc(-c2cnccn2)ss1    rule met

Is MIC99 strictly under 20 µg/mL for the entry O=c1oc(-c2cc(F)c(Cl)nc2Cl)ns1 ? rule met

Is MIC99 strictly under 20 µg/mL for the entry O=c1oc(-c2cnccn2)ns1 ? rule met

----------
- Test system: Mycobacterium tuberculosis
- assay: Antitubercular activity against Mycobacterium tuberculosis H37Rv ATCC 27294 after 11 days by serial dilution method
- Format: functional
- measurement.setup: H37Rv ATCC 27294, 264 h
property.label: MIC90 (µg/mL)
Number only, in µg/mL; omit the unit.

O=c1oc(-c2ccc([N+](=O)[O-])cc2Cl)ns1    16
O=c1nc(-c2ccc(F)cc2)ss1    32
O=c1nc(-c2cc(F)c(Cl)nc2Cl)ss1    32

Could you share what MIC90 was measured for Cc1ccc(-c2nc(=O)ss2)s1 , tested on Mycobacterium tuberculosis? 16

Could you share what MIC90 was measured for O=c1oc(-c2ccc(Cl)cc2)ns1 , tested on Mycobacterium tuberculosis? 32

----------
- Tested on: Mycobacterium tuberculosis
- assay: Antitubercular activity against Mycobacterium tuberculosis H37Rv ATCC 27294 after 11 days by serial dilution method
- Assay type: functional
- measurement.setup: H37Rv ATCC 27294, 264 h
property.label: MIC99 (µg/mL)
Number only, in µg/mL; omit the unit.

Record excerpt, results attached:
COc1cccc(-c2nsc(=O)o2)c1    16
O=c1oc(-c2cccnc2Cl)ns1    8
Cc1ccc(-c2nsc(=O)o2)s1    16
O=c1nc(-c2ccc(Cl)cc2)ss1    32

Could you share which MIC99 value was measured for O=c1nc(-c2ccccc2[N+](=O)[O-])ss1 ? 32

Could you share which MIC99 value was measured for O=c1oc(-c2ccc([N+](=O)[O-])cc2Cl)ns1 ? 16

Could you share which MIC99 value was measured for O=c1oc(-c2ccccc2[N+](=O)[O-])ns1 ? 16

Could you share which MIC99 value was measured for O=c1nc(-c2ccc([N+](=O)[O-])cc2Cl)ss1 ? 16

Could you share which MIC99 value was measured for O=c1nc(-c2cccnc2Cl)ss1 ? 16

----------
- Tested on: Mycobacterium tuberculosis
- assay: Antitubercular activity against Mycobacterium tuberculosis H37Rv ATCC 27294 after 11 days by serial dilution method
- Format: functional
- measurement.setup: H37Rv ATCC 27294, 264 h
property.label: MIC99 (µg/mL)
Number only, in µg/mL; omit the unit.

Record excerpt, results attached:
Nc1ccc(-c2nsc(=O)o2)cc1    16
Cc1ccc(-c2nc(=O)ss2)s1    32

Turning now to a further compound:
Could you share which MIC99 value was measured for Nc1ccc(-c2nc(=O)ss2)cc1 ? 32
